The values you see were collected from paper PMC3344817.

Assay: CC50 by flow cytometry with propidium iodide, NIH-3T3 fibroblasts
Format: cell-based, murine
Settings: mouse, NIH-3T3 fibroblasts (non-malignant)
QUANTITY_NAME: CC50 at 22 h (µM)
Give the quantity in µM, number only.

Incoming: Quick one: CC50 at 22 h of O=C1C(=Cc2ccccc2)CN(C(=O)C(=O)N2CC(=Cc3ccccc3)C(=O)C(=Cc3ccccc3)C2)CC1=Cc1ccccc1 ?
Outgoing: 12.8

====

Test system: Molt 4/C8 T-lymphocytes
Experiment: Cytotoxicity
Type: cell-based, human
Conditions: Homo sapiens, Molt4/C8, 72 h, read-out: IC50, Molt 4/C8 cells
# reported IC50; entries follow
Give the quantity in nM, number only.

Here is how some compounds turned out for IC50.
O=C1C(=Cc2ccccc2)CN(C(=O)C(=O)N2CC(=Cc3ccccc3)C(=O)C(=Cc3ccccc3)C2)CC1=Cc1ccccc1
460
N[C@@H](Cc1ccc(N(CCCl)CCCl)cc1)C(=O)O [Melphalan, reference compound]
3240

Incoming: Query IC50 on Molt 4/C8 T-lymphocytes for O=C1C(=Cc2ccccc2)CN(C(=O)CCCC(=O)N2CC(=Cc3ccccc3)C(=O)C(=Cc3ccccc3)C2)CC1=Cc1ccccc1
Outgoing: 1610

Incoming: Query IC50 on Molt 4/C8 T-lymphocytes for O=C1C(=Cc2ccccc2)CN(C(=O)CCC(=O)N2CC(=Cc3ccccc3)C(=O)C(=Cc3ccccc3)C2)CC1=Cc1ccccc1
Outgoing: 570

Incoming: Query IC50 on Molt 4/C8 T-lymphocytes for O=C1C(=Cc2ccccc2)CN(C(=O)C=CC(=O)N2CC(=Cc3ccccc3)C(=O)C(=Cc3ccccc3)C2)CC1=Cc1ccccc1
Outgoing: 4400

Incoming: Query IC50 on Molt 4/C8 T-lymphocytes for O=C1C(=Cc2ccccc2)CN(C(=O)CC(=O)N2CC(=Cc3ccccc3)C(=O)C(=Cc3ccccc3)C2)CC1=Cc1ccccc1
Outgoing: 70

Incoming: Query IC50 on Molt 4/C8 T-lymphocytes for O=C1C(=Cc2ccccc2)CN(C(=O)CCCCCCC(=O)N2CC(=Cc3ccccc3)C(=O)C(=Cc3ccccc3)C2)CC1=Cc1ccccc1
Outgoing: 1530

Incoming: Query IC50 on Molt 4/C8 T-lymphocytes for O=C1C(=Cc2ccccc2)CN(C(=O)C=CC=CC(=O)N2CC(=Cc3ccccc3)C(=O)C(=Cc3ccccc3)C2)CC1=Cc1ccccc1
Outgoing: 25100

====

# reported RP (relative potency), CEM cells; entries follow
Test system: CEM T-lymphocytes
Experiment: Cytotoxicity
Type: cell-based, human
Conditions: IC50 of 2 divided by IC50 of the compound
Write the number on its own, no unit after it.

O=C1C(=Cc2ccccc2)CN(C(=O)c2cccc(C(=O)N3CC(=Cc4ccccc4)C(=O)C(=Cc4ccccc4)C3)c2)CC1=Cc1ccccc1 [Compound 1j]
0.1
O=C1C(=Cc2ccccc2)CN(C(=O)C(=O)N2CC(=Cc3ccccc3)C(=O)C(=Cc3ccccc3)C2)CC1=Cc1ccccc1 [Compound 1a]
2.5
O=C1C(=Cc2ccccc2)CN(C(=O)CCCCCCC(=O)N2CC(=Cc3ccccc3)C(=O)C(=Cc3ccccc3)C2)CC1=Cc1ccccc1 [Compound 1e]
0.8

For the next question, use this molecule.
Incoming: Quick one: RP (relative potency), CEM cells of O=C1C(=Cc2ccccc2)CN(C(=O)C=CC(=O)N2CC(=Cc3ccccc3)C(=O)C(=Cc3ccccc3)C2)CC1=Cc1ccccc1 [1 f] ?
Outgoing: 0.2
